system: A549 NSCLC; assay: NCI tumour cell line growth inhibition, 48 h
quantity-name: TGI

[[record]]
compound = "CN(C)CC1CCCCCCCCCC(CN(C)C)C1=O (centres undefined)"
quantity_name = "TGI"
result = "> 51.5 µM"

[[record]]
compound = "CCOC(=O)c1c(C)nc2c(c1N)CC(=O)N2CCc1ccccc1"
quantity_name = "TGI"
result = "36.9 µM"

[[record]]
compound = "CCOC(=N)CC(=O)Nc1cccc(Cl)c1"
quantity_name = "TGI"
result = "> 100 µM"

[[record]]
compound = "CCN(CC)/[N+]([O-])=N/OCOC(C)=O"
quantity_name = "TGI"
result = "> 100 µM"


----------
system: HT29 colon; experiment: NCI tumour cell line growth inhibition, 48 h
Catalogue of TGI values
quantity-name: TGI

[[record]]
compound = "O=c1[nH]nc(Cn2c3ccc(Br)cc3c3nc4ccccc4nc32)n1C1CCCCC1"
tested_system = "HT29 colon"
result = "> 100 µM"

[[record]]
compound = "NC(=O)N/N=C(/Cc1nc2ccc(C(=O)c3ccccc3)cc2[nH]c1=O)C(=O)Nc1ccc(C(F)(F)F)cc1[N+](=O)[O-]"
tested_system = "HT29 colon"
result = "> 100 µM"

[[record]]
compound = "O=C(N/N=C/c1ccccc1O)c1ccccc1Nc1ccccc1C(=O)N/N=C/c1ccccc1O"
tested_system = "HT29 colon"
result = "4.99 µM"

[[record]]
compound = "Cc1ccn2c(CCc3nnc4cc(C)ccn34)nnc2c1"
tested_system = "HT29 colon"
result = "> 100 µM"

[[record]]
compound = "COc1ccc(/C=C2/NC(=S)N=C2Cl)cc1"
tested_system = "HT29 colon"
result = "> 100 µM"

[[record]]
compound = "CC(=O)C(CN(C)C)C(c1ccccc1)c1c(O)c2ccccc2oc1=O (stereo not given)"
tested_system = "HT29 colon"
result = "> 100 µM"

[[record]]
compound = "CCOC(=O)[C@H]1Nc2ccc([N+](=O)[O-])cc2C2c3ccccc3CC21 (stereo not given in full)"
tested_system = "HT29 colon"
result = "35.4 µM"

[[record]]
compound = "CSc1nc(NC2OC(COC(C)=O)C(OC(C)=O)C(OC(C)=O)C2OC(C)=O)c(-c2csc(N)n2)c(=O)n1C (stereo not given)"
tested_system = "HT29 colon"
result = "> 100 µM"

[[record]]
compound = "O=[N+]([O-])c1cc(Cl)ccc1OCc1ccccc1"
tested_system = "HT29 colon"
result = "84.1 µM"

[[record]]
compound = "COc1cc2ncnc(Nc3ccc4c(cnn4Cc4ccccc4)c3)c2cc1OC"
tested_system = "HT29 colon"
result = "> 25 µM"


----------
system: HCT-116 colon; assay: NCI tumour cell line growth inhibition, 48 h; in the data active = GI50 below about 0.43 µM; inactive = the rest
Classes used: active, inactive

[[record]]
compound = "CN1CCN(c2nc(NCCCNc3ccnc4cc(Cl)ccc34)c3ccccc3n2)CC1"
tested_system = "HCT-116 colon"
label = "inactive"

[[record]]
compound = "Cn1c2ccccc2c2c3[nH][nH]c(=O)c3c3c4ccccc4[nH]c3c21"
tested_system = "HCT-116 colon"
label = "inactive"

[[record]]
compound = "COc1cc(C2C3=C(COC3=O)Nc3c2ccc2c3CCCC2)cc2c1OCO2 (centres undefined)"
tested_system = "HCT-116 colon"
label = "active"

[[record]]
compound = "COc1cc(N2CCN(C(C)C)CC2)ccc1Nc1nc(Nc2cccc(F)c2C(=O)O)c2cc[nH]c2n1"
tested_system = "HCT-116 colon"
label = "inactive"

[[record]]
compound = "COc1cc(-c2cc(/C=C/C(=O)c3ccc(Cl)c(Cl)c3)[nH]n2)cc(OC)c1OC"
tested_system = "HCT-116 colon"
label = "inactive"

[[record]]
compound = "Nc1nc(N)c2c(n1)NC(c1ccccc1)C1CCc3ccccc3C1=N2 (centres undefined)"
tested_system = "HCT-116 colon"
label = "inactive"

[[record]]
compound = "COCCN1CCN(Cc2ccc(-c3n[nH]c4c3C(=O)c3c(NC(=O)NN5CCOCC5)cccc3-4)cc2)CC1"
tested_system = "HCT-116 colon"
label = "active"

[[record]]
compound = "CN1CCN(Cc2ccc(NC(=O)c3cncc(C#Cc4cncc5nccnc45)c3)cc2C(F)(F)F)CC1"
tested_system = "HCT-116 colon"
label = "inactive"

[[record]]
compound = "CCCCNC(=O)Oc1ccc(/C(=C(/C)Cc2ccc(OC)cc2)c2ccc(OCCN3CCCC3)cc2)cc1"
tested_system = "HCT-116 colon"
label = "inactive"

